Tested on: SK-MEL-5 melanoma
PROCEDURE_DETAILS: NCI tumour cell line growth inhibition, 48 h
Exercise: state measured TGI for each of the compounds provided.
Express your answer in µM, writing the number without its unit.

Consider the compound shown here: O=C(Nc1cccc(-n2cc(-c3ccncc3)c(-c3ccc(Cl)c(O)c3)n2)c1)Nc1ccc(Cl)c(C(F)(F)F)c1 What is its recorded TGI?
1.04

Consider the compound shown here: C/C1=C\[C@H](C)C[C@H](C)OC(=O)C[C@H](c2ccc(O)cc2)NC(=O)[C@H](Cc2ccc(O)c(I)c2)N(C)C(=O)[C@H](C)NC(=O)[C@@H](C)C1 What is its recorded TGI?
11.1

Consider the compound shown here: CCN(CC)CCOc1ccc(N2C(=O)c3cccc4cc([N+](=O)[O-])cc(c34)C2=O)cc1 What is its recorded TGI?
26.6

Consider the compound shown here: C/C(=N\O)c1ccc(Nc2nc3ccccc3c3occc23)cc1 What is its recorded TGI?
35.1
